- System: human lung squamous carcinoma cells (NCI-H226)
- Protocol Text: scratch assay, migration of NCI-H226 cells
- Format: cell-based
- Test Parameters: NCI-H226, 10 μM, 48 hours; control group 65.31 ± 3.19
Ends that are not written are not given here. PEG = not defined here
Listed substances paired with reported Migration rate (%) (mean ± SD, P)

Req: Which Migration rate (%) (mean ± SD, P) value belongs to N6: SEQ ID NO: 1 with deletion of four amino acids at the carboxyl terminal (positions 15-18) (YRVRFLAKENVTQD) ?
Resp: 19.72 ± 8.97,** %

Req: What would you report for N32: SEQ ID NO: 1 with deletion of positions 1-3, addition of one amino acid and PEG modification at the carboxyl terminal (RFLAKENVTQDAEDNC-{PEG}; reading uncertain) ?
Resp: 19.47 ± 6.42,*** %

Req: What would you report for N5: SEQ ID NO: 1 with addition of one amino acid at the carboxyl terminal and deletion of positions 1-3 (RFLAKENVTQDAEDNC) ?
Resp: 10.65 ± 9.94,*** %

====

- Tested on: vimentin
- Protocol Text: vimentin expression in SK-HEP-1 cells (ELISA)
- Type: cell-based, human
- Test Parameters: SK-HEP-1, 10 μM, 24 hours, control group 1.2 ± 0.01
Listed substances paired with reported Relative protein level (mean ± SD, P), vimentin

Answered examples (5):
{"Substance": "N4: SEQ ID NO: 1 with deletion of positions 15-18 and positions 1-3 (RFLAKENVTQD)", "Assayed Target": "vimentin", "Reading": "0.95 ± 0.03, ***"}
{"Substance": "N5: SEQ ID NO: 1 with addition of one amino acid at the carboxyl terminal and deletion of positions 1-3 (RFLAKENVTQDAEDNC)", "Assayed Target": "vimentin", "Reading": "0.87 ± 0.03, ****"}
{"Substance": "N7: SEQ ID NO: 1 with addition of one amino acid at the carboxyl terminal and substitution A15R (YRVRFLAKENVTQDREDNC)", "Assayed Target": "vimentin", "Reading": "1 ± 0.03, ***"}
{"Substance": "N8: SEQ ID NO: 1 with deletion of positions 15-18 and positions 3, 4 and 11 (YRFLAKENTQD)", "Assayed Target": "vimentin", "Reading": "0.81 ± 0.03, ****"}
{"Substance": "N12: SEQ ID NO: 1 with deletion of position 18 and positions 1-2 (VRFLAKENVTQDAED)", "Assayed Target": "vimentin", "Reading": "0.71 ± 0.03, ****"}

Req: Which Relative protein level (mean ± SD, P), vimentin value belongs to N2: SEQ ID NO: 1 with deletion of one amino acid (position 18) at the carboxyl terminal (YRVRFLAKENVTQDAED) ?
Resp: 0.91 ± 0.03, ****

====

- Tested on: human lung cancer cells (A549) subcutaneous xenograft
- Protocol Text: lung cancer subcutaneous xenograft animal model, intravenous injection
- Type: in vivo, mice (BALB/c-nu/nu)
- Test Parameters: intravenous 60 mg/kg once every other day, 20 days, control 3373.26 ± 581.44
Ends that are not written are not given here. PEG = not defined here
Listed substances paired with reported Volume of tumor (mm^3) (mean ± SD)
Give your result in mm^3 as a bare value.

{"Substance": "N43: SEQ ID NO: 1 with addition of one amino acid at the amino terminal, deletion of position 18, PEG at the carboxyl terminal (RYRVRFLAKENVTQDAED-{PEG}; reading uncertain)", "Volume of tumor (mm^3) (mean ± SD)": 1218.7}
{"Substance": "N37: SEQ ID NO: 1 with addition of two amino acids to the carboxyl terminal and PEG modification at the amino terminal ({PEG}-YRVRFLAKENVTQDAEDNCT; reading uncertain)", "Volume of tumor (mm^3) (mean ± SD)": 915.97}
{"Substance": "N26: SEQ ID NO: 1 with substitution A15R, addition of one amino acid at the amino terminal and one at the carboxyl terminal (FYRVRFLAKENVTQDREDNC)", "Volume of tumor (mm^3) (mean ± SD)": 1163.91}
{"Substance": "N45: SEQ ID NO: 1 with V11R, deletion of positions 1-5 and 15-18, PEG modification at the carboxyl terminal (LAKENRTQD-{PEG}; reading uncertain)", "Volume of tumor (mm^3) (mean ± SD)": 1204.87}
{"Substance": "N6: SEQ ID NO: 1 with deletion of four amino acids at the carboxyl terminal (positions 15-18) (YRVRFLAKENVTQD)", "Volume of tumor (mm^3) (mean ± SD)": 1361.03}

Req: Which Volume of tumor (mm^3) (mean ± SD) value belongs to N7: SEQ ID NO: 1 with addition of one amino acid at the carboxyl terminal and substitution A15R (YRVRFLAKENVTQDREDNC) ?
Resp: 1189.39

Req: What would you report for N29: SEQ ID NO: 1 with deletion of positions 1-5 and 15-18 and PEG modification at the amino terminal ({PEG}-LAKENVTQD; reading uncertain) ?
Resp: 1365.48

Req: What would you report for N25: SEQ ID NO: 1 with substitution N18R and addition of two amino acids at the carboxyl terminal (YRVRFLAKENVTQDAEDRCT) ?
Resp: 1169.92

Req: What would you report for N27: SEQ ID NO: 1 with addition of one amino acid at the carboxyl terminal and PEG modification at the carboxyl terminal (YRVRFLAKENVTQDAEDNC-{PEG}; reading uncertain) ?
Resp: 1402.37

Req: What would you report for N2: SEQ ID NO: 1 with deletion of one amino acid (position 18) at the carboxyl terminal (YRVRFLAKENVTQDAED) ?
Resp: 1297.28

These data points were gathered from patent US20220280594A1.
